tested on: LXRa:RXRa (NR concentration 270 nM, RXRa partner concentration 90 nM); assay: PBM binding z-score (relative to random genomic background probes); higher = stronger binding; sequences stand for … in GC…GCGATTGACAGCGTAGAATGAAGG
Answer not fulfilled if PBM binding z-score is under 0.6, and fulfilled if it is 0.6 or more.

Solved entries (count: 6):
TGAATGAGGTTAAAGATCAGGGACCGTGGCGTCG fulfilled
TCTTGTAGATCAACAGGAGCTTAAGAAAGATCGA not fulfilled
TGTCAAAGTTCAAAGGTAACGTATGTATCCACAC fulfilled
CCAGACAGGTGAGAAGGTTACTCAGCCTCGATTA not fulfilled
ACTAGTTGGTCAGCTCAGGTCACACACAATTCGG fulfilled
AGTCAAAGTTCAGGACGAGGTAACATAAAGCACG fulfilled

Would you say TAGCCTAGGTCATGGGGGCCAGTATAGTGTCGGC shows PBM binding z-score at minimum 0.6?
fulfilled
